Ref: patent US12552798B2

biological target: EGFR (Homo sapiens (Human)); assay: EGFR kinase inhibitory assay (ELISA); format: biochemical; settings: EGFR IC50 relative to BTK IC50
Sequence (P00533 25-1210): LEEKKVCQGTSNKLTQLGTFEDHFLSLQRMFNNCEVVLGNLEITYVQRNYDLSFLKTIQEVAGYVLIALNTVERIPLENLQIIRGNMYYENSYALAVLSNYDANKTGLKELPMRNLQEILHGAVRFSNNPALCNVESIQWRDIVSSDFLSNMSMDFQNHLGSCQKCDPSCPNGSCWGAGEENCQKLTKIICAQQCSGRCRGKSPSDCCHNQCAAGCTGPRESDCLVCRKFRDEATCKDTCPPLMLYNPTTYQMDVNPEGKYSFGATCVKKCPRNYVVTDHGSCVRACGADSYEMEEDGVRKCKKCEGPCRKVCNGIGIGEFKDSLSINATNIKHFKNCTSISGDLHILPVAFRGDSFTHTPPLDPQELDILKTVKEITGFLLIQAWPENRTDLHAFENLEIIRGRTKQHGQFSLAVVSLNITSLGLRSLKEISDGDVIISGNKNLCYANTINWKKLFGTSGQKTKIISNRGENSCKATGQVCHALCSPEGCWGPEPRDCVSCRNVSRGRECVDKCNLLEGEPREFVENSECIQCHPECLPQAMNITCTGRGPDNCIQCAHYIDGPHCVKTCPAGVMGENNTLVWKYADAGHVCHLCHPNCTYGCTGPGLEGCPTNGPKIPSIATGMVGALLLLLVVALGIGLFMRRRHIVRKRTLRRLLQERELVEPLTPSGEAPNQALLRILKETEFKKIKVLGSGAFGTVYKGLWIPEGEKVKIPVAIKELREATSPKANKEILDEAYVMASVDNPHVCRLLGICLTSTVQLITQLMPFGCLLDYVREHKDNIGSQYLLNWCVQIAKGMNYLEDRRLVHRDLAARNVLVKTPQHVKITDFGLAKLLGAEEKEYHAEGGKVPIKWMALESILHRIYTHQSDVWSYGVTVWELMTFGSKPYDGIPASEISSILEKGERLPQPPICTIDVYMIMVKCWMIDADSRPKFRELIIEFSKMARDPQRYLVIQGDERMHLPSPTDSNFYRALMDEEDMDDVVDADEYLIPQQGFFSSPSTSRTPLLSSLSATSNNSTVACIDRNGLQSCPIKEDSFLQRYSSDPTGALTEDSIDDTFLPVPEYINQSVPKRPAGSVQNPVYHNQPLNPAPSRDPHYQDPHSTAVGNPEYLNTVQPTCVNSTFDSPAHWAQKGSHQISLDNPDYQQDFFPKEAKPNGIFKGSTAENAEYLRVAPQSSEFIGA
Experimental Endpoint: Selectivity Ratio (BTK and EGFR)
Could you keep your reply to the number by itself?

Consider C#CC(=O)N1CCC(C2CCNn3c2nc(-c2ccc(Oc4ccccc4)cc2)c3C(N)=O)CC1 (stereo not shown) . Its measured Selectivity Ratio (BTK and EGFR) is 3.43

Consider C=CC(=O)N1CCC(C2CCn3c2nc(-c2ccc(Oc4ccccc4)cc2)c3C(N)=O)CC1 (stereo not shown) . Its measured Selectivity Ratio (BTK and EGFR) is 9.75

Consider C=CC(=O)Nc1ccccc1C1CCNn2c1nc(-c1ccc(Oc3ccccc3)cc1)c2C(N)=O (stereo not shown) . Its measured Selectivity Ratio (BTK and EGFR) is 3.05

Consider C=CC(=O)N1CCC(C2CCNn3c2nc(-c2ccc(Oc4ccccc4)cc2)c3C(N)=O)CC1 (single isomer, unassigned) [1b (peak 2)] . Its measured Selectivity Ratio (BTK and EGFR) is 5.87

Consider NC(=O)c1c(-c2ccc(Oc3ccccc3)cc2)nc2n1NCCC2C1CN(C(=O)/C=C/C(F)(F)F)C1 (stereo not shown) . Its measured Selectivity Ratio (BTK and EGFR) is 405.5

Consider C=CC(=O)N1CCC(C2CCNn3c2nc(-c2ccc(Oc4ccccc4)cc2)c3C(N)=O)CC1 (stereo not shown) [Example 1] . Its measured Selectivity Ratio (BTK and EGFR) is 19.48

Consider C=CC(=O)N1CCC(C2CCn3c2nc(-c2ccc(Oc4ccccc4)c(OC)c2)c3C(N)=O)CC1 (stereo not shown) . Its measured Selectivity Ratio (BTK and EGFR) is 35.66

* * *

molecular target: ITK (Homo sapiens (Human)); experiment: ITK kinase inhibitory assay (ELISA); format: biochemical; conditions: ITK IC50 relative to BTK IC50
Sequence (Q08881 whole entry): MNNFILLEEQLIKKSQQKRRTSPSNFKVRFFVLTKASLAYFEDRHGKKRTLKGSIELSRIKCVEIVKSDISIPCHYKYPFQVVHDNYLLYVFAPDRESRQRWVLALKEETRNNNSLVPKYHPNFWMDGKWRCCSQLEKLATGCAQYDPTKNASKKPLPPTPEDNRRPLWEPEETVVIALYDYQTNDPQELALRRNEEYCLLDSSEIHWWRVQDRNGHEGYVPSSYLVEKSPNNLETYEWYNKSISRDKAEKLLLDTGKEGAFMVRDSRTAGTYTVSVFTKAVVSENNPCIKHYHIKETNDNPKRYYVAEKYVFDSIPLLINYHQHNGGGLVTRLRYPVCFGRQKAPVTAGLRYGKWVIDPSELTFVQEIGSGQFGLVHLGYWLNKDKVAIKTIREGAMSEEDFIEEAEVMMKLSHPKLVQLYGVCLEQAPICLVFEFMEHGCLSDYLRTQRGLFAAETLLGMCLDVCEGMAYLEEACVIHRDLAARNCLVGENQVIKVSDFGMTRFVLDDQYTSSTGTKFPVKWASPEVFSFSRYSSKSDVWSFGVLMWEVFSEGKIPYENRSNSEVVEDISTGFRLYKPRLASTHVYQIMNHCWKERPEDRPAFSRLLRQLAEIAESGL
Experimental Endpoint: Selectivity Ratio (BTK and ITK)
Could you keep your reply to the number by itself?

Consider C=CC(=O)Nc1ccccc1C1CCNn2c1nc(-c1ccc(Oc3ccccc3)cc1)c2C(N)=O (stereo not shown) . Its measured Selectivity Ratio (BTK and ITK) is 5160.6

Consider C#CC(=O)N1CCC(C2CCNn3c2nc(-c2ccc(Oc4ccccc4)cc2)c3C(N)=O)CC1 (stereo not shown) . Its measured Selectivity Ratio (BTK and ITK) is 27.40

Consider NC(=O)c1c(-c2ccc(Oc3ccccc3)cc2)nc2n1NCCC2C1CCN(C(=O)/C=C/C(F)(F)F)CC1 (single isomer, unassigned) [10a (peak 1)] . Its measured Selectivity Ratio (BTK and ITK) is 301.5

* * *

molecular target: BTK (Homo sapiens (Human), UniProt Q06187)
Sequence (Q06187 whole entry): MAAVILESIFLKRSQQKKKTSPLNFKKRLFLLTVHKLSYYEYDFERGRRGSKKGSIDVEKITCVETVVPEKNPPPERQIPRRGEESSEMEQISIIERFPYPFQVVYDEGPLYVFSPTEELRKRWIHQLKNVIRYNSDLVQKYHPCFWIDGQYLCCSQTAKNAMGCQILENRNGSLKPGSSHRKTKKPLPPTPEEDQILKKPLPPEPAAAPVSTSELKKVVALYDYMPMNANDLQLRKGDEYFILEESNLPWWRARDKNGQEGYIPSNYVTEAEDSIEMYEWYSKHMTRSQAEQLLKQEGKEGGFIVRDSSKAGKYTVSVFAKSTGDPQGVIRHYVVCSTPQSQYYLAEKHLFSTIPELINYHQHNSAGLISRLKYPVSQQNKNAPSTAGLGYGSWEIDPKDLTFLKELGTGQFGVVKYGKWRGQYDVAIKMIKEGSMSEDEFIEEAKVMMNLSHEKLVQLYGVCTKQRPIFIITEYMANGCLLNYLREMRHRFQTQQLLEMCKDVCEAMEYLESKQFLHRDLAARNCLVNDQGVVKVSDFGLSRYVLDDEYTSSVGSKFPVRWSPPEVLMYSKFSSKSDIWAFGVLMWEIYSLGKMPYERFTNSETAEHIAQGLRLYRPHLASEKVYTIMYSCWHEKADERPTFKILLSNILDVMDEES
IC50 under 50 nM gets criterion met, anything at or over 50 nM gets criterion not met.

Query: Given C=CC(=O)N1CCC(C2CCNn3c2nc(-c2ccc(Oc4ccccc4)c(OC)c2)c3C(N)=O)CC1 (stereo not drawn) , is recorded IC50 strictly lower than 50 nM?
Response: criterion met

Query: Given C=CC(=O)N1CCC(C2CCNn3c2nc(-c2ccc(OC)cc2)c3C(N)=O)CC1 (stereo not drawn) , is recorded IC50 strictly lower than 50 nM?
Response: criterion not met

Query: Given NC(=O)c1c(-c2ccc(Oc3ccccc3)cc2)nc2n1NCCC2C1CCN(C(=O)/C=C/C(F)(F)F)CC1 (single isomer, unassigned) [10b (peak 2)] , is recorded IC50 strictly lower than 50 nM?
Response: criterion not met

Query: Given NC(=O)c1c(-c2ccc(Oc3ccccc3)cc2)nc2n1NCCC2C1CCN(C(=O)/C=C/C(F)(F)F)CC1 (stereo not drawn) [Example 10] , is recorded IC50 strictly lower than 50 nM?
Response: criterion met

Query: Given C=CC(=O)N1CCC(C2CCNn3c2nc(-c2ccc(Oc4ccccc4)cc2)c3C(N)=O)C1 (stereo not drawn) , is recorded IC50 strictly lower than 50 nM?
Response: criterion not met

Query: Given C=CC(=O)N1CCC(C2CCNn3c2nc(-c2ccc(Oc4ccccc4)cc2)c3C(N)=O)CC1 (stereo not drawn) [Example 1] , is recorded IC50 strictly lower than 50 nM?
Response: criterion met

* * *

Record form. Attribute: half-life. Fill in for each entry.
test: PK properties assay in SD rats; format: in vivo; conditions: rat, plasma, iv 5 mg/kg
Give just the number in min; leave the unit off.

Consider NC(=O)c1c(-c2ccc(Oc3ccccc3)cc2)nc2n1NCCC2C1CCN(C(=O)/C=C/C(F)(F)F)CC1 (single isomer, unassigned) [10a (peak 1)] . Its measured half-life is 18.6

Consider C=CC(=O)N1CCC(C2CCNn3c2nc(-c2ccc(Oc4ccccc4)cc2)c3C(N)=O)CC1 (single isomer, unassigned) [1a (peak 1)] . Its measured half-life is 24.6

* * *

Record form. Attribute: IC50. Fill in for each entry.
tested on: TMD8; assay: Cell antiproliferative activity assay (CellTiter-Glo), TMD8; assay type: cell-based; settings: Homo sapiens, TMD8, TMD8, 72 hs; read-out: Cell Growth IC50 (nM) TMD8
Give just the number in nM; leave the unit off.

Consider C=CC(=O)N1CCC(C2CCNn3c2nc(-c2ccc(Oc4ccccc4)cc2)c3C(N)=O)CC1 (centres unmarked) . Its measured IC50 is 12.3

Consider NC(=O)c1c(-c2ccc(Oc3ccccc3)cc2)nc2n1NCCC2C1CCN(C(=O)/C=C/C(F)(F)F)CC1 (centres unmarked) . Its measured IC50 is 51.6

* * *

Record form. Attribute: AUC. Fill in for each entry.
assay: PK properties assay in SD rats; type: in vivo; conditions: rat, plasma, po 5 mg/kg
Give just the number in ng·h/mL; leave the unit off.

Consider C=CC(=O)N1CCC(C2CCNn3c2nc(-c2ccc(Oc4ccccc4)cc2)c3C(N)=O)CC1 (single isomer, unassigned) [1a (peak 1)] . Its measured AUC is 3430

Consider NC(=O)c1c(-c2ccc(Oc3ccccc3)cc2)nc2n1NCCC2C1CCN(C(=O)/C=C/C(F)(F)F)CC1 (single isomer, unassigned) [10a (peak 1)] . Its measured AUC is 1390

* * *

Biological target: BMX (Homo sapiens (Human))
Sequence (P51813 whole entry): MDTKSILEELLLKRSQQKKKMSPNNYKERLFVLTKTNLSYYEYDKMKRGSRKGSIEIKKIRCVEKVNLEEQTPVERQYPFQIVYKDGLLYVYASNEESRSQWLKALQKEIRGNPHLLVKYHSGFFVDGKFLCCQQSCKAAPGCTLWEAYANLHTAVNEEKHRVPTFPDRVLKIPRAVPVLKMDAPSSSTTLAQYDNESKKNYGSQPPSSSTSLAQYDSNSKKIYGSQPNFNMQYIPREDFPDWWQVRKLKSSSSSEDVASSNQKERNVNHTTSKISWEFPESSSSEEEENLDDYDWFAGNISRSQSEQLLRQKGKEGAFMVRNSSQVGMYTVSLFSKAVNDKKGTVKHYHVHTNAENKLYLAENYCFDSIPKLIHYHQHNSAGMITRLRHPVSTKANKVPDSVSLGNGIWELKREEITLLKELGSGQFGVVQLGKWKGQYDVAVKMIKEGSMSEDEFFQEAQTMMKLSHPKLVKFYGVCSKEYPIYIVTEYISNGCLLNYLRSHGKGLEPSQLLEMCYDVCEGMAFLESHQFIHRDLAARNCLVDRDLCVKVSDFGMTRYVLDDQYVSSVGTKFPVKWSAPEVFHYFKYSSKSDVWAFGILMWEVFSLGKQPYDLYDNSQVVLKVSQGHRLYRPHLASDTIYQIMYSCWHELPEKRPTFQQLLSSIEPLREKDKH
Assay: BMX kinase inhibitory assay (ELISA)
Assay type: biochemical
Settings: BMX IC50 relative to BTK IC50
Procedure: BTK, EGFR, BMX, or ITK Inhibitory Assay Procedure for BTK, BMX, EGFR and ITK Inhibitory Assay: Kinase inhibitory activities of compounds were evaluated using the Enzyme-linked immunosorbent assay (ELISA). […] The wells were visualized using 3,3′,5,5′-tetramethylbenzidine (TMB), and chromogenic reaction was ended with 2 mol/L H2SO4, the absorbance was read with a multimode plate reader (PerkinElmer, USA) at 450 nm. […]
Experimental Endpoint: Selectivity Ratio (BTK and BMX)

Consider NC(=O)c1c(-c2ccc(Oc3ccccc3)cc2)nc2n1NCCC2C1CCN(C(=O)/C=C/C(F)(F)F)CC1 (single isomer, unassigned) [10b (peak 2)] . Its measured Selectivity Ratio (BTK and BMX) is 2.32

Consider C=CC(=O)N1CCC(C2CCNn3c2nc(-c2ccc(Oc4ccccc4)cc2)c3C(N)=O)CC1 (single isomer, unassigned) [1b (peak 2)] . Its measured Selectivity Ratio (BTK and BMX) is 1.86

Consider C=CC(=O)N1CCC(C2CCn3c2nc(-c2ccc(Oc4ccccc4)c(OC)c2)c3C(N)=O)CC1 (stereo not shown) . Its measured Selectivity Ratio (BTK and BMX) is 7.51

Consider NC(=O)c1c(-c2ccc(Oc3ccccc3)cc2)nc2n1NCCC2C1CCN(C(=O)/C=C/C(F)(F)F)CC1 (stereo not shown) [Example 10] . Its measured Selectivity Ratio (BTK and BMX) is 6.04

* * *

target: EGFR (Homo sapiens (Human)); assay: EGFR kinase inhibitory assay (ELISA); type: biochemical; conditions: EGFR IC50 relative to BTK IC50
Record form. Attribute: Selectivity Ratio (BTK and EGFR). Fill in for each entry.
Could you keep your reply to the number by itself?

Consider NC(=O)c1c(-c2ccc(Oc3ccccc3)cc2)nc2n1NCCC2C1CCN(C(=O)/C=C/C(F)(F)F)CC1 (single isomer, unassigned) [10b (peak 2)] . Its measured Selectivity Ratio (BTK and EGFR) is 638.75

Consider NC(=O)c1c(-c2ccc(Oc3ccccc3)cc2)nc2n1NCCC2C1CCN(C(=O)/C=C/C(F)(F)F)CC1 (single isomer, unassigned) [10a (peak 1)] . Its measured Selectivity Ratio (BTK and EGFR) is 365.37

Consider C=CC(=O)N1CCC(C2CCNn3c2nc(-c2ccc(Oc4ccccc4)cc2)c3C(N)=O)CC1 (single isomer, unassigned) [1a (peak 1)] . Its measured Selectivity Ratio (BTK and EGFR) is 2.00

Consider NC(=O)c1c(-c2ccc(Oc3ccccc3)cc2)nc2n1NCCC2C1CCN(C(=O)/C=C/C(F)(F)F)CC1 (stereo not shown) [Example 10] . Its measured Selectivity Ratio (BTK and EGFR) is 235.36

* * *

system: Ramos; assay: Cell antiproliferative activity assay (CellTiter-Glo), Ramos; type: cell-based; settings: Homo sapiens, 72 hs, read-out: Cell Growth IC50 (nM) Ramos
Record form. Attribute: IC50. Fill in for each entry.
Give just the number in nM; leave the unit off.

Consider C#CC(=O)N1CCC(C2CCNn3c2nc(-c2ccc(Oc4ccccc4)cc2)c3C(N)=O)CC1 (stereo not drawn) [Example 11] . Its measured IC50 is 725

Consider NC(=O)c1c(-c2ccc(Oc3ccccc3)cc2)nc2n1NCCC2C1CCN(C(=O)/C=C/C(F)(F)F)CC1 (stereo not drawn) [Example 10] . Its measured IC50 is 2760

Consider NC(=O)c1c(-c2ccc(Oc3ccccc3)cc2)nc2n1NCCC2C1CN(C(=O)/C=C/C(F)(F)F)C1 (stereo not drawn) [Example 20] . Its measured IC50 is 294
